Where these numbers come from: paper PMC8064090

Biological target: wild type (WT) South African HIV-1 subtype C protease (HIV-1 PR) (Human immunodeficiency virus type 1 group M subtype C)
Assay: Enzyme inhibition assay with chromogenic substrate (Dixon method), wild type PR
Assay type: biochemical
Method: HIV-1 PR activity was measured by adding a purified enzyme (100–300 nM) to 300 µM of the chromogenic substrate Lys-Ala-Arg-Val-Nle-p-nitro-Phe-Glu-Ala-Nle amide (Sigma-Aldrich, St. Louis, MO, USA) dissolved in buffer D (50 mM sodium acetate buffer containing 100 mM NaCl (pH 5.0)) at 37 °C. […]
Overview of reported pKi across a group of compounds:
As a rule, pKi stands for the negative log10 of the concentration, concentration in M.

I have this compound here, CC(C)CN(C[C@@H](O)[C@H](Cc1ccccc1)NC(=O)O[C@H]1CO[C@H]2OCC[C@H]21)S(=O)(=O)c1ccc(N)cc1 , and I need its recorded pKi. 8.80

What do you have for Cc1cccc(C)c1OCC(=O)N[C@@H](Cc1ccccc1)[C@@H](O)C[C@H](Cc1ccccc1)NC(=O)[C@H](C(C)C)N1CCCNC1=O ? 8.67

---

Overview of reported Ki across a group of molecules:
target: HIV-1 PR MUT-2 (M46I, I54V, L76V, V82A, L10F, L33F) (Human immunodeficiency virus type 1 group M subtype C, UniProt O12158, I538V/L494F/L517F/L560V/M530I/V566A); construct: The HIV-1 PR is a 99 amino acid homodimer; assay: Intrinsic tryptophan fluorescence quenching assay, MUT-2 PR; details: MUT-2 HIV-1 PR; tryptophan fluorescence, 25 °C
Sequence (O12158 485-583 L494F/L517F/M530I/I538V/L560V/V566A): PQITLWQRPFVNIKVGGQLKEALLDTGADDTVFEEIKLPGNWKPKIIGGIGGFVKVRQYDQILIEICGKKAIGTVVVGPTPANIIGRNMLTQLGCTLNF
Please append the unit to your numeric answer.

[[record]]
molecule = "Cc1cccc(C)c1OCC(=O)N[C@@H](Cc1ccccc1)[C@@H](O)C[C@H](Cc1ccccc1)NC(=O)[C@H](C(C)C)N1CCCNC1=O [LPV, lopinavir]"
observable = "Ki"
endpoint_value = "79.5 nM"


Here's the next entry for you.
I have this molecule here, CC(C)CN(C[C@@H](O)[C@H](Cc1ccccc1)NC(=O)O[C@H]1CO[C@H]2OCC[C@H]21)S(=O)(=O)c1ccc(N)cc1 [DRV, darunavir] , and I need its recorded Ki. 32.9 nM

---

biological target: wild type (WT) South African HIV-1 subtype C protease (HIV-1 PR) (Human immunodeficiency virus type 1 group M subtype C, UniProt O12158); test: Intrinsic tryptophan fluorescence quenching assay, wild type PR; format: binding
Sequence (O12158 485-583): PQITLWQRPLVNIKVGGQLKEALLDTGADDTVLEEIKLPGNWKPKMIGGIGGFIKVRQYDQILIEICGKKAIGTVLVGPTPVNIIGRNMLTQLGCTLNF
observable: Ki (nM)
# number only, unit nM dropped from output

[[record]]
compound = "CC(C)CN(C[C@@H](O)[C@H](Cc1ccccc1)NC(=O)O[C@H]1CO[C@H]2OCC[C@H]21)S(=O)(=O)c1ccc(N)cc1 [DRV, darunavir]"
measurement_units = "nM"
endpoint_value = 8.12


Here's the next entry for you.
I have this compound here, Cc1cccc(C)c1OCC(=O)N[C@@H](Cc1ccccc1)[C@@H](O)C[C@H](Cc1ccccc1)NC(=O)[C@H](C(C)C)N1CCCNC1=O [LPV, lopinavir] , and I need its recorded Ki. 17.2

---

molecular target: HIV-1 PR MUT-1 (M46I, I54V, V82A, L10F) (Human immunodeficiency virus type 1 group M subtype C, UniProt O12158, I538V/L494F/M530I/V566A); assay: biochemical
Sequence (O12158 485-583 L494F/M530I/I538V/V566A): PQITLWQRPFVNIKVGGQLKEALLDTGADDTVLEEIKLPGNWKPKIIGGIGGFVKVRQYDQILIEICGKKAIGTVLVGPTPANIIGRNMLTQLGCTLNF
observable: Ki (nM)
# number only, unit nM dropped from output

[[record]]
substance_smiles = "CC(C)CN(C[C@@H](O)[C@H](Cc1ccccc1)NC(=O)O[C@H]1CO[C@H]2OCC[C@H]21)S(=O)(=O)c1ccc(N)cc1"
endpoint_value = 5.53


I have this molecule here, Cc1cccc(C)c1OCC(=O)N[C@@H](Cc1ccccc1)[C@@H](O)C[C@H](Cc1ccccc1)NC(=O)[C@H](C(C)C)N1CCCNC1=O , and I need its recorded Ki. 46.5

---

Target: HIV-1 PR MUT-2 (M46I, I54V, L76V, V82A, L33F, L10F) (Human immunodeficiency virus type 1 group M subtype C, UniProt O12158, I538V/L494F/L517F/L560V/M530I/V566A)
Sequence (O12158 485-583 L494F/L517F/M530I/I538V/L560V/V566A): as the sequence (O12158 485-583 L494F/L517F/M530I/I538V/L560V/V566A) above
Assay: biochemical
Experimental: HIV-1 PR activity was measured by adding a purified enzyme (100–300 nM) to 300 µM of the chromogenic substrate Lys-Ala-Arg-Val-Nle-p-nitro-Phe-Glu-Ala-Nle amide (Sigma-Aldrich, St. Louis, MO, USA) dissolved in buffer D (50 mM sodium acetate buffer containing 100 mM NaCl (pH 5.0)) at 37 °C. […]
observable: Ki (nM)
# number only, unit nM dropped from output

[[record]]
substance_smiles = "CC(C)CN(C[C@@H](O)[C@H](Cc1ccccc1)NC(=O)O[C@H]1CO[C@H]2OCC[C@H]21)S(=O)(=O)c1ccc(N)cc1"
endpoint_value = 7.8


I have this molecule here, Cc1cccc(C)c1OCC(=O)N[C@@H](Cc1ccccc1)[C@@H](O)C[C@H](Cc1ccccc1)NC(=O)[C@H](C(C)C)N1CCCNC1=O , and I need its recorded Ki. 52.6
